- Test system: Anopheles stephensi
- MEASUREMENT_DESCRIPTION: 12 well plate knockdown test
- Assay type: in vivo
- CONDITION_SET: 1 h, Rate 0.2 PPM, read-out: Anopheles stephensi 1 hour % KD
Could you please mark condition met for values of pest or weed control at 0.2 ppm below 40% and condition not met for values at or above it?

> print(dat)
                   structure.notation         study.system              label
1        O=c1nc(-c2cnccc2C(F)(F)F)os1  Anopheles stephensi  condition not met
2        CC(C)NOC(=O)c1cnccc1C(F)(F)F  Anopheles stephensi      condition met
3  C[Si](C)(C)CNC(=O)c1cnccc1C(F)(F)F  Anopheles stephensi  condition not met
4           CCNNC(=O)c1cnccc1C(F)(F)F  Anopheles stephensi      condition met
5    CCCN1CN=C(c2cnccc2C(F)(F)F)OC1=O  Anopheles stephensi      condition met

Exercise: Identify whether the molecule `CSCC/C(N)=N\C(=O)c1cnccc1C(F)(F)F` records pest or weed control at 0.2 ppm below 40%.
Solution: condition met

Exercise: Identify whether the molecule `O=C(NCc1ccc(Cl)cc1)c1cnccc1C(F)(F)F` records pest or weed control at 0.2 ppm below 40%.
Solution: condition met
